- TEST DETAILS: Cytotoxicity against human HCT116 cells after 48 hrs by MTT assay
- Type: functional, cell-based
- CONDITIONS: HCT-116, 48 h
Listing of entries alongside the reported IC50.

Below, 2 molecules whose answers are already recorded.
Consider Cc1ccc(-c2cn(/N=C/c3cc4ccccc4nc3Cl)c(N)n2)cc1 . Its measured IC50 is > 50 µM

According to the records, this molecule Nc1nc(-c2ccc3ccccc3c2)cn1/N=C/c1cc2ccccc2nc1Cl displays IC50 of > 50 µM

Next:
So for COc1ccc(-c2cn(/N=C/c3cc4cc(C)ccc4nc3Cl)c(N)n2)cc1 , the logged IC50 turned out to be > 50 µM

====

- Tested on: HUVEC
- TEST DETAILS: Cytotoxicity against HUVEC cells after 48 hrs by MTT assay
- Type: cell-based
- CONDITIONS: Homo sapiens
Below, each entry is listed with its recorded pIC50.
Please keep in mind that pIC50 is minus log10 of the molar concentration; only the number is needed.

The following molecules have reported results that may help.
Lab note: Cc1ccc2nc(Cl)c(/C=N/n3cc(-c4cccc5ccccc45)nc3N)cc2c1 gave pIC50 of 5.02

According to the records, this molecule Cc1ccc2nc(Cl)c(/C=N/n3cc(-c4ccc5ccccc5c4)nc3N)cc2c1 displays pIC50 of 4.95

Looking up Nc1nc(-c2cccs2)cn1/N=C/c1cc2ccccc2nc1Cl , I found its pIC50 recorded as 4.99

Lookup result for COc1ccc(-c2cn(/N=C/c3cc4ccccc4nc3Cl)c(N)n2)cc1 ; measured pIC50: 4.91

Input Cc1ccc(-c2cn(/N=C/c3cc4cc(C)ccc4nc3Cl)c(N)n2)cc1 . Output pIC50: 4.74

Recorded result, Cc1ccc2nc(Cl)c(/C=N/n3cc(-c4ccccc4)nc3N)cc2c1 , pIC50: 4.38

Further cases:
So, Nc1nc(-c2ccc(Cl)cc2)cn1/N=C/c1cc2ccccc2nc1Cl ? Its pIC50 was 4.55

# pIC50 (molecule: COc1ccc(-c2cn(/N=C/c3cc4cc(C)ccc4nc3Cl)c(N)n2)cc1 ) is 4.91
